Source listed as patent US9775831B2.

Recorded Fold Synergistic (1a-QE) values for a group of molecules are listed next.
system: genotype-1a variant with glutamine 30 changed to glutamate in the NS5A protein; assay: HCV replicon cell-based assay, NS5A synergy with BMS-790052; conditions: genotype 1a Q→E variant; test compound titrated in combination with NS5A-targeting compound (BMS-790052 fixed at 200 nM)

{"molecule": "CC(C)[C@H](CC(=O)NCC(C)(C)c1ccccc1)c1ncc(-c2ccc(-c3ccc(-c4cnc([C@@H](CC(=O)NCC(C)(C)c5ccccc5)C(C)C)[nH]4)cc3)cc2)[nH]1", "Fold Synergistic (1a-QE)": ">100 Fold"}
{"molecule": "CC(C)[C@H](CC(=O)NC[C@@H]1CC[C@H]2C[C@@H]1C2(C)C)c1ncc(-c2ccc(-c3ccc(-c4cnc([C@@H](CC(=O)NC[C@@H]5CC[C@H]6C[C@@H]5C6(C)C)C(C)C)[nH]4)cc3)cc2)[nH]1", "Fold Synergistic (1a-QE)": ">100 Fold"}
{"molecule": "CC1(C)O[C@@H](C(N)=O)[C@H](c2ncc(-c3ccc(-c4ccc(-c5coc([C@@H]6OC(C)(C)O[C@H]6C(N)=O)n5)cc4)cc3)[nH]2)O1", "Fold Synergistic (1a-QE)": "<10 Fold"}
{"molecule": "CC(C)[C@H](CC(=O)N1CCN(C)C(=O)C1)c1ncc(-c2ccc(-c3ccc(-c4cnc([C@@H](CC(=O)N5CCN(C)C(=O)C5)C(C)C)[nH]4)cc3)cc2)[nH]1", "Fold Synergistic (1a-QE)": "<10 Fold"}
{"molecule": "CC(C)[C@H](CC(=O)NC1(C#N)CC1)c1ncc(-c2ccc(-c3ccc(-c4cnc([C@@H](CC(=O)NC5(C(N)=O)CC5)C(C)C)[nH]4)cc3)cc2)[nH]1", "Fold Synergistic (1a-QE)": "<10 Fold"}
{"molecule": "CC(C)[C@H](CC(=O)NCC(C)(C)O)c1ncc(-c2ccc(-c3ccc(-c4cnc([C@@H](CC(=O)NCC(C)(C)O)C(C)C)[nH]4)cc3)cc2)[nH]1", "Fold Synergistic (1a-QE)": ">10 Fold"}
{"molecule": "CC(C)CNC(=O)C[C@@H](CCC(F)(F)F)c1ncc(-c2ccc(-c3ccc(-c4cnc([C@H](CCC(F)(F)F)CC(=O)NCC(C)C)[nH]4)cc3)cc2)[nH]1", "Fold Synergistic (1a-QE)": ">10 Fold"}
{"molecule": "CC(C)[C@H](CC(=O)N(C)CC(=O)NC(C)(C)C)c1ncc(-c2ccc(-c3ccc(-c4cnc([C@@H](CC(=O)N(C)CC(=O)NC(C)(C)C)C(C)C)[nH]4)cc3)cc2)[nH]1", "Fold Synergistic (1a-QE)": ">10 Fold"}
{"molecule": "COC(=O)NN(C(=O)[C@@H]1OC(C)(C)O[C@H]1c1ncc(-c2ccc(-c3ccc(-c4cnc([C@@H]5OC(C)(C)O[C@H]5C(=O)N(NC(=O)OC)C(C)C)[nH]4)cc3)cc2)[nH]1)C(C)C", "Fold Synergistic (1a-QE)": "<10 Fold"}
{"molecule": "CC(C)(C)NC(=O)C(c1ncc(-c2ccc(-c3ccc(-c4cnc(C(C(=O)NC(C)(C)C)C(C)(C)C)[nH]4)cc3)cc2)[nH]1)C(C)(C)C (stereo not shown)", "Fold Synergistic (1a-QE)": ">100 Fold"}
